Experimental system: human full-length recombinant PKC βII (Homo sapiens, UniProt P05771)
Construct: Active human full-length recombinant PKC βII; purchased Invitrogen GmbH, Darmstadt, Germany
Sequence (P05771 1-673 isoform P05771-2): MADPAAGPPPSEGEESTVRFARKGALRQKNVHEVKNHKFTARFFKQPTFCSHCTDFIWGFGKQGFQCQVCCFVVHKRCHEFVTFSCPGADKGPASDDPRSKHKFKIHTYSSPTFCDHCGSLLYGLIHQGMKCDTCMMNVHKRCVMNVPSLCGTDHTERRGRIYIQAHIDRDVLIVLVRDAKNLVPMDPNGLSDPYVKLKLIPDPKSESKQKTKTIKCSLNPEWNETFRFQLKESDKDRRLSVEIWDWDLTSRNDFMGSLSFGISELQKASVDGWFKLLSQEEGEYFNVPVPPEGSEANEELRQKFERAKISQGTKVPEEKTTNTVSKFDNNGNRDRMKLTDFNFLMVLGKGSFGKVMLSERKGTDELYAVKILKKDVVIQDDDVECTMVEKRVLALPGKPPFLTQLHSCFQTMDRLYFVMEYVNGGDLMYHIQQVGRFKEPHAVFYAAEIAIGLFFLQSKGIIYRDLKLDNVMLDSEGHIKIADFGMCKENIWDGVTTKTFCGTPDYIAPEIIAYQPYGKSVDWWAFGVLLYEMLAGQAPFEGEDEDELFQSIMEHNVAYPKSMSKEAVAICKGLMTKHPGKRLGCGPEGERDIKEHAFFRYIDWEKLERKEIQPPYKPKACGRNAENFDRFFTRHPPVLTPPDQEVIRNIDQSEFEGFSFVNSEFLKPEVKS
Procedure text: Determination of PKC βII inhibition (Caliper mobility-shift kinase assay, Fluorescein-RFARKGSLRQKNV peptide substrate)
Type: biochemical
Condition context: example compounds at a final concentration of 1.14 μM (±0.15 μM)
Parameter measured: inhibition at 1.14 µM (%)

The cases that follow already have their inhibition at 1.14 µM on record.
Cc1cc(O)ccc1-c1cc(C(=O)N2CCNC[C@@H]2C)c2c(C)n[nH]c2n1 [Example 17] | 95
Cc1n[nH]c2nc(-c3ccc(O)cc3)cc(C(=O)N[C@@H]3CCC(=O)NC3)c12 [Example 208] | 88
COC[C@H]1CN(C(=O)c2cc(-c3ccc(O)c(F)c3)nc3[nH]nc(C)c23)CCN1 [Example 298] | 68
Cc1n[nH]c2nc(-c3ccc(O)c(F)c3)cc(C(=O)N3C[C@H]4CNC[C@H]4C3)c12 [Example 306] | 76
CNCCCNC(=O)c1cc(-c2ccc(O)cc2)nc2[nH]nc(C)c12 [Example 244] | 76

P. CCCC1(NC(=O)c2cc(-c3ccc(O)cc3)nc3[nH]nc(C)c23)CCNCC1 [Example 118]
Q. COc1ccc(C(CNC(=O)c2cc(-c3ccc(O)cc3)nc3[nH]nc(C)c23)N(C)C)cc1 (stereo not shown) [Example 376]
[Q] Lowest inhibition at 1.14 µM? choose P or Q Return value: the label identifying the chosen record.
[A] Q

* * *

Experimental system: human full-length recombinant PKC βII (Homo sapiens, UniProt P05771)
Construct: Active human full-length recombinant PKC βII; purchased Invitrogen GmbH, Darmstadt, Germany
Procedure text: Determination of PKC βII inhibition (Caliper mobility-shift kinase assay, Fluorescein-RFARKGSLRQKNV peptide substrate)
Format: biochemical
Condition context: example compounds at a final concentration of 1.14 μM (±0.15 μM)
Parameter measured: inhibition at 1.14 µM (%)

Cc1n[nH]c2nc(-c3ccc(O)cc3)cc(C(=O)N3CCNC[C@H]3c3ccccc3)c12 | 99
Cc1n[nH]c2nc(-c3ccc(O)cc3)cc(C(=O)N3CCC4(CCNC4)C3)c12 (stereo not drawn) | 86
Cc1n[nH]c2nc(-c3ccc(O)c(F)c3)cc(C(=O)NC3CC4CC3CN4)c12 (stereo not drawn) | 77
CCN1CC2CC1CN2C(=O)c1cc(-c2ccc(O)cc2)nc2[nH]nc(C)c12 (stereo not drawn) | 80
Cc1n[nH]c2nc(-c3ccc(O)cc3F)cc(C(=O)N3[C@@H]4CC[C@H]3CNC4)c12 | 78
Cc1n[nH]c2nc(-c3ccc(O)c(F)c3)cc(C(=O)N3CCNCC3c3cccnc3)c12 (stereo not drawn) | 92
Cc1n[nH]c2nc(-c3ccc(O)cc3)cc(C(=O)N3CCNCC3c3ccc(C(C)C)cc3)c12 (stereo not drawn) | 90
Cc1n[nH]c2nc(-c3ccc(O)cc3)cc(C(=O)N3CCNCC3c3ccc(C(F)(F)F)cc3)c12 (stereo not drawn) | 96
Cc1n[nH]c2nc(-c3ccc(O)cc3)cc(C(=O)N3CCNCC3c3ccc(Br)cc3)c12 (stereo not drawn) | 92

* * *

Experimental system: human full-length recombinant PKC βII (Homo sapiens)
Construct: Active human full-length recombinant PKC βII; purchased Invitrogen GmbH, Darmstadt, Germany
Procedure text: Determination of PKC βII inhibition (Caliper mobility-shift kinase assay, Fluorescein-RFARKGSLRQKNV peptide substrate)
Format: biochemical
Condition context: example compounds at a final concentration of 1.14 μM (±0.15 μM)
Parameter measured: inhibition at 1.14 µM (%)

Cc1n[nH]c2nc(-c3ccc(O)cc3)cc(C(=O)N3CCNCC34CC4)c12 | 91
CCc1n[nH]c2nc(-c3ccc(O)cc3)cc(C(=O)N3CCC(NC)C3)c12 (stereo not drawn) | 71
Cc1n[nH]c2nc(-c3ccc(O)cc3)cc(C(=O)N3CCC4CNCC43)c12 (stereo not drawn) | 95
CC1(C)CNCCN1C(=O)c1cc(-c2ccc(O)cc2)nc2[nH]nc(C3CC3)c12 | 91
Cc1n[nH]c2nc(-c3ccc(O)cc3F)cc(C(=O)N3CC(C)(C)NCC3(C)C)c12 | 100
Cc1n[nH]c2nc(-c3ccc(O)cc3)cc(C(=O)N3CCNCC3c3cccc(C(F)(F)F)c3)c12 (stereo not drawn) | 97
